Test system: HIV-1IIIB
Experiment: MAGI antiviral (entry) assay with HIV-1IIIB in HeLa-derived MAGI-CCR5/CXCR4 cells
Format: cell-based
Conditions: Human immunodeficiency virus 1; MAGI-CCR5/CXCR4 cells, β-galactosidase reporter; read-out: HeLa HIV-1IIIB MAGI IC50
pIC50: −log10 of the molar value.
Measured Property: pIC50

>>> df
                                   compound  recorded_measurement
0  CC1(C)CN2C(CSC(=NC3CCCCC3)NC3CCCCC3)=CSC2=N1 [IT1t, reference compound]                  8.00

A. NCCCN(C[C@@H]1CN(Cc2ccccc2)CCN1)[C@H]1CCCc2cccnc21
B. CN(C[C@@H]1CN(Cc2ccccc2)CCN1)[C@H]1CCCc2cccnc21
Query: // compare measured pIC50, left A , right B , return larger Field: selected label. Fill in the label of the entry you choose.
Reply: A

* * *

Tested on: MDA-MB-231 cells
Experiment: Mitochondrial depolarization of MDA-MB-231 breast cancer cells (JC-1 stain)
Settings: Homo sapiens, MDA-MB-231, 24 h, read-out: MDA-MB-231 Depolarization EC50
Measured Property: EC50 (nM)

>>> df
                                   molecule       system_name  recorded_measurement
0  CN(C[C@@H]1CN(Cc2ccccc2)CCN1)[C@H]1CCCc2cccnc21  MDA-MB-231 cells                 10000
1  NC(=O)NCCCCN(C[C@H]1Cc2ccccc2CN1)[C@H]1CCCc2cccnc21  MDA-MB-231 cells                   0.8
2  c1cnc(NCc2ccc(CNc3ncccn3)cc2)nc1 [MSX-122, reference compound]  MDA-MB-231 cells                    81
3  c1ccc(Cc2cn[nH]c2C2CCN(Cc3ccncc3)CC2)cc1  MDA-MB-231 cells                    28
4  CN(C[C@@H]1CN(Cc2ccc(C(F)(F)F)cc2)CCN1)[C@H]1CCCc2cccnc21  MDA-MB-231 cells                 85000
5  NCCCCN(C[C@H]1Cc2ccccc2CN1Cc1cnccn1)[C@H]1CCCc2cccnc21  MDA-MB-231 cells                    15

A. c1cc(CN2CCCNCCNCCCNCC2)ccc1CN1CCCNCCNCCCNCC1 [AMD3100, reference compound]
B. NCCCN(C[C@@H]1CN(Cc2ccccc2)CCN1)[C@H]1CCCc2cccnc21
Query: Hi! Which is lower in terms of EC50, the first one A or the second one B ? Field: selected label. Fill in the label of the entry you choose.
Reply: B
(B: 0.39 nM, A: 123 nM)

* * *

Molecular target: CXCR4 (Homo sapiens)
Construct: CXCR4-expressing CEM cells; endogenous in cells; host or cells: CEM cells
Sequence (P61073 whole entry): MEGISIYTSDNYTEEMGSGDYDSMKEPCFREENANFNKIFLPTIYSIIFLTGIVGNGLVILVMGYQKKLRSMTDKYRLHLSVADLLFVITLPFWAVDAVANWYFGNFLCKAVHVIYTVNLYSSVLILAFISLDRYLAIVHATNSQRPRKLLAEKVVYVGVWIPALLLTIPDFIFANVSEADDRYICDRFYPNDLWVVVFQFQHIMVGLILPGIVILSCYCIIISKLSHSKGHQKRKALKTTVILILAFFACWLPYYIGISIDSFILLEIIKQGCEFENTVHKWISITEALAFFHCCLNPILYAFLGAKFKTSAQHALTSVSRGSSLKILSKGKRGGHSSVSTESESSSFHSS
Test: Inhibition of SDF-1α-mediated calcium flux in CXCR4-expressing CEM cells
Format: cell-based
Settings: read-out: CEM SDF-1 Ca2+ Flux IC50
Measured Property: IC50 (nM)

Please review the following examples before continuing.
                                   molecule           system_name  measured_property  recorded_measurement
0  CN(C[C@@H]1CN(Cc2ccccc2)CCN1)[C@H]1CCCc2cccnc21 [Compound 6]  CXCR4 (Homo sapiens)               IC50                  3300
1  NCCCCN(C[C@H]1Cc2ccccc2CN1Cc1cnccn1)[C@H]1CCCc2cccnc21 [Compound 3]  CXCR4 (Homo sapiens)               IC50                   110
2  NC(=O)NCCCCN(C[C@H]1Cc2ccccc2CN1)[C@H]1CCCc2cccnc21 [Compound 1]  CXCR4 (Homo sapiens)               IC50                     4

P. NCCCN(C[C@@H]1CN(Cc2ccccc2)CCN1)[C@H]1CCCc2cccnc21 [Compound 5]
Q. NCCCCN(C[C@H]1Cc2ccccc2CN1Cc1ccncn1)[C@H]1CCCc2cccnc21 [Compound 4]
Query: Hi! Which is lower in terms of IC50, the first one P or the second one Q ? Field: selected label. Fill in the label of the entry you choose.
Reply: P
